The measurements presented in this section are drawn from the supplement of paper PMC10567573.

B1: IKZF1 (parent)
chain: HIKLHSGEKPFKCHLCNYACRRRD

# Variants of: B1
# assayDetails: protein stability index of a GFP-peptide fusion (GPS, HEK-293T) (PSI 1-6); higher = more stable;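 note: lentivirally expressed fusions sorted by FACS into six bins by GFP to DsRed ratio, PSI derived from sequencing read proportions per bin multiplied by bin number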
# conditionDescription: c terminus: a fixed tail appended
Note to self: values exactly at 2 are 1 (yes). So protein stability index at or above 2 is 1 (yes), below is 0 (no).

| residues | labelValue |
| --- | --- |
| HIKLHSGEKPDKCHLCNYACRRRD [F11D] | 1 (yes) |
| HIKLHSGEKPNKCHLCNYACRRRD [F11N] | 0 (no) |
| HIKLHSGEKPFKCHLCNYHCRRRD [A19H] | 0 (no) |
| HIKLCSGEKPFKCHLCNYACRRRD [H5C] | 1 (yes) |
| HIKLHSGEKPFKCHLCNYACRRND [R23N] | 0 (no) |
